Let's look at some compounds and their measured EC50.
targetDesc: Calcium Sensing Receptor (CaSR) (Homo sapiens, UniProt P41180)
Sequence (P41180 20-1078): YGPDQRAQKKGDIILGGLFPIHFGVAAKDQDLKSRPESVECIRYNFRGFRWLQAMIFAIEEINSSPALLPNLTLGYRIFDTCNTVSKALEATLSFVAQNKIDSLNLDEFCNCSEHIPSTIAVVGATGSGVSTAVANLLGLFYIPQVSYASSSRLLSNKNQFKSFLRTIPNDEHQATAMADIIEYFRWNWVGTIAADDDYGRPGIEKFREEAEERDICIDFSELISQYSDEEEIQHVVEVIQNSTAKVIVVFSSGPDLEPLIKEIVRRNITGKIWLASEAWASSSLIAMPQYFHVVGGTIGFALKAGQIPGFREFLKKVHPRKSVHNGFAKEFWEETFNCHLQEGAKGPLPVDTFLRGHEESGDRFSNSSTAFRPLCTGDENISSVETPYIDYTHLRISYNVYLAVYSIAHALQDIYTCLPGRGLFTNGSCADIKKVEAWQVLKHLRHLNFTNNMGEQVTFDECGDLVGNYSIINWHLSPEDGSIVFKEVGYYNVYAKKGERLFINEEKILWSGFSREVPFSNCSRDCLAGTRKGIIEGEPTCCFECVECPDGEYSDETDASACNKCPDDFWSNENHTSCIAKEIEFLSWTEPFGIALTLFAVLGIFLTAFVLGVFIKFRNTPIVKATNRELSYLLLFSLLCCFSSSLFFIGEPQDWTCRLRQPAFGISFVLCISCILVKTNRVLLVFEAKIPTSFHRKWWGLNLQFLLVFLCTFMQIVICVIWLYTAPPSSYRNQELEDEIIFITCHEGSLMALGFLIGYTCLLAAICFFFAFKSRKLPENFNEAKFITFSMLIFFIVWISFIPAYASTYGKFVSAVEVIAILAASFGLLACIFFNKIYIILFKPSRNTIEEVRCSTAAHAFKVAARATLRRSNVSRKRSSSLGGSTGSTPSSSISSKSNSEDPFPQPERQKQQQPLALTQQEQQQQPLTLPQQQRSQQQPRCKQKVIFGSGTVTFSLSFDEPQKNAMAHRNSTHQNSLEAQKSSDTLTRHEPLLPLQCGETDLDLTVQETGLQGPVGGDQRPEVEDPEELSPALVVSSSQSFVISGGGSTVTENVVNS
experiment: In-vitro assay of calcimimetics through modulation of Calcium Sensing Receptor (intracellular calcium, FLIPR)
cond: HEK293 cells stably expressing hCaSR, increase in intracellular calcium, Fluo4NW dye, 0.3 mM CaCl2, 8-point assay, read-out: EC50 Range
Structures can show the parent of a compound that is named as a salt.
metric: EC50

{"compound": "Cc1ccc([C@@H]2C[C@H](CN[C@H](C)c3cccc4ccccc34)Oc3ccccc32)cc1C(=O)O [Example 84b, hydrochloride]", "targetDesc": "Calcium Sensing Receptor (CaSR) (Homo sapiens, UniProt P41180)", "metric": "EC50", "result": "< 20 nM"}
{"compound": "C[C@@H](NC[C@H]1C[C@@H](c2ccc(F)c(OCC(=O)O)c2)c2ccccc2O1)c1cccc2ccccc12 [Example 93b, hydrochloride]", "targetDesc": "Calcium Sensing Receptor (CaSR) (Homo sapiens, UniProt P41180)", "metric": "EC50", "result": "< 20 nM"}
{"compound": "C[C@@H](NC[C@H]1C[C@@H](c2ccc(C(C)(C)C(=O)O)cc2)c2ccccc2O1)c1cccc2ccccc12 [Example 108b, hydrochloride]", "targetDesc": "Calcium Sensing Receptor (CaSR) (Homo sapiens, UniProt P41180)", "metric": "EC50", "result": "50 to 200 nM"}
{"compound": "Cc1cc(C(=O)O)cc([C@@H]2C[C@H](CN[C@H](C)c3cccc4ccccc34)Oc3ccccc32)c1 [Example 75, hydrochloride]", "targetDesc": "Calcium Sensing Receptor (CaSR) (Homo sapiens, UniProt P41180)", "metric": "EC50", "result": "< 20 nM"}
{"compound": "C[C@@H](NC[C@H]1C[C@@H](c2cccc(C(=O)NCC(=O)O)c2)c2ccccc2O1)c1cccc2ccccc12 [Example 140, acetic acid hydrochloride]", "targetDesc": "Calcium Sensing Receptor (CaSR) (Homo sapiens, UniProt P41180)", "metric": "EC50", "result": "< 20 nM"}
{"compound": "C[C@@H](NC[C@H]1C[C@@H](c2ccc(OCC(=O)O)cc2)c2ccccc2O1)c1cccc2ccccc12 [Example 105b, hydrochloride]", "targetDesc": "Calcium Sensing Receptor (CaSR) (Homo sapiens, UniProt P41180)", "metric": "EC50", "result": "< 20 nM"}

---

Let's look at some molecules and their measured EC50.
targetDesc: Calcium Sensing Receptor (CaSR) (Homo sapiens)
experiment: In-vitro assay of calcimimetics through modulation of Calcium Sensing Receptor (intracellular calcium, FLIPR)
cond: HEK293 cells stably expressing hCaSR, increase in intracellular calcium, Fluo4NW dye, 0.3 mM CaCl2, 8-point assay, read-out: EC50 Range
Where a name gives a salt, the structure may show the parent alone.
metric: EC50

{"molecule": "COc1c(C(=O)O)cccc1[C@H]1C[C@H](CN[C@H](C)c2cccc3ccccc23)Oc2ccccc21 [Example 89a, hydrochloride]", "result": "0.02 to 0.05 µM"}
{"molecule": "C[C@@H](NC[C@H]1C[C@H](c2ccc(C(=O)O)cc2)c2ccccc2O1)c1cccc2ccccc12 [Example 98a, hydrochloride]", "result": "0.05 to 0.2 µM"}
{"molecule": "CCN(CC)C(=O)c1cc([C@@H]2C[C@H](CN[C@H](C)c3cccc4ccccc34)Oc3ccccc32)ccc1C [Example 146, hydrochloride]", "result": "0.02 to 0.05 µM"}
{"molecule": "Cc1ccc([C@@H]2C[C@H](CN[C@H](C)c3cccc4ccccc34)Oc3ccccc32)c(C)c1C(=O)O [Example 67, hydrochloride]", "result": "< 0.02 µM"}
{"molecule": "C[C@@H](NC[C@H]1C[C@@H](c2cc(F)c(C(=O)O)c(F)c2)c2ccccc2O1)c1cccc2ccccc12 [Example 101, hydrochloride]", "result": "0.02 to 0.05 µM"}
